Data origin, for the record: paper PMC8307404

- Assayed System: MARK4 (Homo sapiens, UniProt Q96L34)
- Sequence (Q96L34 1-752): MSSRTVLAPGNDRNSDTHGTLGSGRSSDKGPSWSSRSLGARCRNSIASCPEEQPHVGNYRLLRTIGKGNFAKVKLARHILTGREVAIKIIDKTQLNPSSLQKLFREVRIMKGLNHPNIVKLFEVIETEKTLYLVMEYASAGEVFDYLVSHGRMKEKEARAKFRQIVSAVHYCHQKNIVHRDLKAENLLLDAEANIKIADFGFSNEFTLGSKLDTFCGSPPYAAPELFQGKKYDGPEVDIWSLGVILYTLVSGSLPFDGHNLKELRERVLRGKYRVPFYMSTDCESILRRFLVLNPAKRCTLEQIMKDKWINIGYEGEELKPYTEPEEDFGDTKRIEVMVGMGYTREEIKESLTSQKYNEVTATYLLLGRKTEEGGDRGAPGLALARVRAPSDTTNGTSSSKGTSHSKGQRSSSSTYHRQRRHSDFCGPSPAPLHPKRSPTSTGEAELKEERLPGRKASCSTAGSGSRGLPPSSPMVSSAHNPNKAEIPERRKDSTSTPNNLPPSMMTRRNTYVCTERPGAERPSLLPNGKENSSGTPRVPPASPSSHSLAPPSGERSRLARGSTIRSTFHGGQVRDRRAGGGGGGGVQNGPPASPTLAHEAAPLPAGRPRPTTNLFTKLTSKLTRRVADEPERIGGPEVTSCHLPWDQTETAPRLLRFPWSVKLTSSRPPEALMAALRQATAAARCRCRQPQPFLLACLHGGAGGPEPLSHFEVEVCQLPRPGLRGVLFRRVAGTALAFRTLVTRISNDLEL
- Procedure Summary: Kinase profiling (radiometric filter-binding)
- Format: biochemical
- Condition Details: MARK4, 1 µM inhibitor; read-out: Residual activity, %
Square brackets hold non-standard residues; d marks the D form. Peptide text beside a SMILES is read from it. * marks the point of attachment. X3 = O=C(CCCCCNCc1nc2c(sc3cc(Br)cnc32)c(=O)[nH]1)*
# remaining activity at 1 µM per entry
Kindly answer with a numeric value in %, unit omitted.

Molecule	Observed Result
N=C(N)NCCC[C@@H](NC(=O)CCCCCNCc1nc2c(sc3cc(Br)cnc32)c(=O)[nH]1)C(=O)N[C@H](CCCNC(=N)N)C(=O)N[C@H](CCCNC(=N)N)C(=O)N[C@H](CCCNC(=N)N)C(=O)N[C@H](CCCNC(=N)N)C(=O)N[C@H](CCCNC(=N)N)C(=O)N[C@H](CCCCN)C(N)=O [ARC-3126, BPTP-Ahx-(D-Arg)6-D-Lys-NH2] (X3-[dR][dR][dR][dR][dR][dR][dK]-NH2)	119

Give the observed remaining activity at 1 µM of N=C(N)NCCC[C@@H](NC(=O)CCCCCNC(=O)Cn1cnc2c(I)c(I)c(I)c(I)c21)C(=O)N[C@H](CCCNC(=N)N)C(=O)N[C@H](CCCNC(=N)N)C(=O)N[C@H](CCCNC(=N)N)C(=O)N[C@H](CCCNC(=N)N)C(=O)N[C@H](CCCNC(=N)N)C(=O)N[C@H](CCCCN)C(N)=O for MARK4 (Homo sapiens, UniProt Q96L34).
92
